The measured values listed here are drawn from the Human Domainome abundance scans (Beltran et al. 2025).

B1: Ankyrin-1, residues 1405 to 1484; numbered along this chain, P16157 (parent)
chain: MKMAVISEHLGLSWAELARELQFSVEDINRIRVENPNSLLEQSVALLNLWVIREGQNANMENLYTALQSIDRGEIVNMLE

Variants of: B1
procedure-summary: abundance fitness (aPCA) (normalised: wild type 0, dead -1); higher = more abundant; growth selection in yeast, the domain comes from the species named
settings: Homo sapiens
Outcome: Condition met for abundance fitness of at least -0.2; Condition not met for anything lower.

>>> assigned_category("E26I")
"Condition not met"
>>> assigned_category("Q42G")
"Condition not met"
>>> assigned_category("A58M")
"Condition met"
>>> assigned_category("M78L")
"Condition met"
>>> assigned_category("N37Y")
"Condition not met"

Check the entry "E80G" : does abundance fitness equal or exceed -0.2?
Condition met

Please indicate if the recorded abundance fitness for "N29V" meets or exceeds -0.2.
Condition not met

Is it the case that "M60H" has abundance fitness reaching or exceeding -0.2?
Condition met

Has "Q68H" a recorded abundance fitness greater than or equal to -0.2?
Condition met

Has "L40C" a recorded abundance fitness greater than or equal to -0.2?
Condition not met
